Hello, the source for this data is patent US7906551B2, in case you need it.

Molecular target: COX-1 (Mus musculus)
Construct: endogenous in cells; host or cells: J774 murine monocyte/macrophage cell line
Sequence (P22437 27-602): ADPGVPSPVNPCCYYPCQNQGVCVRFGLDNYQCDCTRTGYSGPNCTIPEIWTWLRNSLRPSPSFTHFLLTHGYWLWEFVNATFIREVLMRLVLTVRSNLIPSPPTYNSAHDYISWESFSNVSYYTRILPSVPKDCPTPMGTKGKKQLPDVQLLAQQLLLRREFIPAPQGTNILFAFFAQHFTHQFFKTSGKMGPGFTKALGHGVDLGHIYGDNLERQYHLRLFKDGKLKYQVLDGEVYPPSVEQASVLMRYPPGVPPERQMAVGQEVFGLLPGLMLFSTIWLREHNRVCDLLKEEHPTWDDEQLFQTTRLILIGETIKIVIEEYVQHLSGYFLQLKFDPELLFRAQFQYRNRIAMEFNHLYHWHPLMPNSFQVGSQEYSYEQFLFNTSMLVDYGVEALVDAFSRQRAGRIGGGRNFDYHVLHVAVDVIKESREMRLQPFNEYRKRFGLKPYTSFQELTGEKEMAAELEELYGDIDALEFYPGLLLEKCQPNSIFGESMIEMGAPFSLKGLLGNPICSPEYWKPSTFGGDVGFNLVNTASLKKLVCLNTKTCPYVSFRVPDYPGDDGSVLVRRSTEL
Test: Assessment of COX-1 activity in J774 cells (arachidonic acid, PGE2 radioimmunoassay)
Type: cell-based, murine
Conditions: Table 9, Formula I-d
Measured IC50 of individual entries

- COCCc1cc(-c2ccc(S(C)(=O)=O)cc2)n(-c2ccc(C(F)(F)F)cc2)c1C [Example 26]: > 100 µM

Could you now consider this next molecule?
Query: Request - read-out IC50 | tested on COX-1 (Mus musculus) | molecule COCCc1cc(-c2ccc(S(C)(=O)=O)cc2)n(-c2ccc(F)cc2)c1C [Example 23]
Response: > 100 µM

====

Measured melting point of individual entries

// known answers, use as guide
* CCCCOC(=O)Cc1cc(-c2ccc(S(C)(=O)=O)cc2)n(-c2ccccc2)c1C | 124 °C
* CCOC(=O)C(O)c1cc(-c2ccc(S(C)(=O)=O)cc2)n(-c2ccccc2)c1C (racemic) | 145 °C
* Cc1c(CC(=O)OC(C)C)cc(-c2ccc(S(C)(=O)=O)cc2)n1-c1ccc(F)c(F)c1 | 143 °C
* CCOC(=O)C(O)c1cc(-c2ccc(S(C)(=O)=O)cc2)n(-c2ccc(OC)cc2)c1C (racemic) | 130 °C
* Cc1c(CC(=O)OC(C)C)cc(-c2ccc(S(C)(=O)=O)cc2)n1-c1cccc(F)c1 | 100 °C
* COc1ccc(-n2c(-c3ccc(S(C)(=O)=O)cc3)cc(CC(=O)OC(C)C)c2C)cc1 | 138 °C

Could you now consider this next compound?
Query: Would you mind telling me what melting point value was observed for `Cc1c(CC(=O)N(C)C)cc(-c2ccc(S(C)(=O)=O)cc2)n1-c1ccccc1` ?
Response: 175 to 179 °C

====

Measured inhibition in vivo at 20 mg/kg of individual entries
Test system: rat model of edema induced by carragenine
Assay: Carrageenan-induced paw edema
Assay type: in vivo
Conditions: 1 h, 60 min, 20 mg/Kg, read-out: Edema inhibition 60 min, MPE
Output spec: scalar in %, unitless text.

// known answers, use as guide
* CCOC(=O)Cc1cc(-c2ccc(S(C)(=O)=O)cc2)n(-c2cccc(F)c2)c1C [Compound 4b, reference compound] | 30
* Cc1ccc(-c2cc(C(F)(F)F)nn2-c2ccc(S(N)(=O)=O)cc2)cc1 | 95
* COc1ccc(-n2c(-c3ccc(S(C)(=O)=O)cc3)cc(CC(=O)OC(C)C)c2C)cc1 | 77

Could you now consider this next compound?
Query: Would you mind telling me what inhibition in vivo at 20 mg/kg value was observed for `Cc1c(CC(=O)OC(C)C)cc(-c2ccc(S(C)(=O)=O)cc2)n1-c1ccc(F)c(F)c1` ?
Response: 91

====

Target: COX-2 (Mus musculus, UniProt Q05769)
Construct: lipopolysaccharide (LPS, 10 μg/mL) to induce COX-2; endogenous in cells; host or cells: J774 murine monocyte/macrophage cell line, LPS-stimulated
Assay: Assessment of COX-2 activity in LPS-stimulated J774 cells (PGE2 radioimmunoassay)
Assay type: cell-based, murine
Settings: at 1.10^−5 M
Measured COX-2 % of inhibition at 1.10^−5 M of individual entries
Output spec: scalar in %, unitless text.

Query: Would you mind telling me what COX-2 % of inhibition at 1.10^−5 M value was observed for `Cc1c(CCOC(=O)c2ccccc2)cc(-c2ccc(S(C)(=O)=O)cc2)n1-c1ccc(F)cc1` ?
Response: 76

Query: # repeat for `CCCC(=O)OCCc1cc(-c2ccc(S(C)(=O)=O)cc2)n(-c2ccc(F)cc2)c1C`
Response: 86

Query: # repeat for `CCC(=O)OCCc1cc(-c2ccc(S(C)(=O)=O)cc2)n(-c2ccc(F)cc2)c1C`
Response: 97

Query: # repeat for `Cc1c(CCOC(=O)c2ccccc2F)cc(-c2ccc(S(C)(=O)=O)cc2)n1-c1ccc(F)cc1`
Response: 64

Query: # repeat for `Cc1c(CCOC(=O)c2ccc(F)cc2)cc(-c2ccc(S(C)(=O)=O)cc2)n1-c1ccc(F)cc1`
Response: 69

Query: # repeat for `Cc1c(CCOC(=O)c2cccs2)cc(-c2ccc(S(C)(=O)=O)cc2)n1-c1ccc(F)cc1`
Response: 69

====

Biological target: COX-2 (Mus musculus)
Construct: lipopolysaccharide (LPS, 10 μg/mL) to induce COX-2; endogenous in cells; host or cells: J774 murine monocyte/macrophage cell line, LPS-stimulated
Sequence (Q05769 18-604): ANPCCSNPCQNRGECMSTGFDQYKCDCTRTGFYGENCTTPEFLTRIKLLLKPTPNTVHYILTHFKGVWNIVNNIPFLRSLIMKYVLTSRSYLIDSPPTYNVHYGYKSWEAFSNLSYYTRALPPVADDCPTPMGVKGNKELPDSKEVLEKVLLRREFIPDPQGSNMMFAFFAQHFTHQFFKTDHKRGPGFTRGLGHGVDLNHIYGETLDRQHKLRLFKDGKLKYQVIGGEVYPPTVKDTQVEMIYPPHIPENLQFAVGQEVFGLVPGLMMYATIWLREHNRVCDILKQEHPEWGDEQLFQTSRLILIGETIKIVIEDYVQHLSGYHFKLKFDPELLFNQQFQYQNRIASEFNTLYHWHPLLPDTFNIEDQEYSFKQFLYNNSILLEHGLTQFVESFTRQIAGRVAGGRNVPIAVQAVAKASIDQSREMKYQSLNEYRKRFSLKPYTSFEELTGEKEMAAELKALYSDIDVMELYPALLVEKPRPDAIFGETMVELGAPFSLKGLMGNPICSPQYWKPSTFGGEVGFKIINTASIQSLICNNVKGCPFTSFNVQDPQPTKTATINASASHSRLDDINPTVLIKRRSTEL
Test: Assessment of COX-2 activity in LPS-stimulated J774 cells (PGE2 radioimmunoassay)
Type: cell-based, murine
Details: Table 8, Formula I-c; read-out: COX-2 IC50
ENDPOINT NAME: pIC50
The read-out pIC50 is expressed as -log10 of concentration in moles per litre.

// known answers, use as guide
• Cc1c(CC(=O)N(C)Cc2ccccc2)cc(-c2ccc(S(C)(=O)=O)cc2)n1-c1ccc(C(F)(F)F)cc1 [Example 19] = 6.33
• CCNC(=O)Cc1cc(-c2ccc(S(C)(=O)=O)cc2)n(-c2ccccc2)c1C [Example 14] = 6.46

Query: Would you mind telling me what pIC50 value was observed for Cc1c(CC(=O)N(C)Cc2ccccc2)cc(-c2ccc(S(C)(=O)=O)cc2)n1-c1ccccc1 [Example 16] ?
Response: 6.77

====

Biological target: COX-2 (Mus musculus, UniProt Q05769)
Construct: lipopolysaccharide (LPS, 10 μg/mL) to induce COX-2; endogenous in cells; host or cells: J774 murine monocyte/macrophage cell line, LPS-stimulated
Experiment: Assessment of COX-2 activity in LPS-stimulated J774 cells (PGE2 radioimmunoassay)
Format: cell-based, murine
Settings: Table 6, Formula Ib; read-out: COX-2 IC50
Protocol: Cells were stimulated for 24 h with E. coli lipopolysaccharide (LPS, 10 μg/mL) to induce COX-2, in the absence or presence of test compounds, at the concentrations previously reported. The supernatants were collected for the measurement of PGE2 by radioimmunoassay. Analysis. […] Results are expressed as the mean, for 3 experiments, of the % inhibition of PGE2 production by test compounds with respect to control samples. […] The IC50 were calculated by GraphPad Instat program (GraphPad software).
ENDPOINT NAME: pIC50
The read-out pIC50 is expressed as -log10 of concentration in moles per litre.

Query: Would you mind telling me what pIC50 value was observed for CCOC(=O)C(O)c1cc(-c2ccc(S(C)(=O)=O)cc2)n(-c2cccc(F)c2)c1C (racemic) ?
Response: 6.49

====

Biological target: COX-2 (Mus musculus, UniProt Q05769)
Construct: lipopolysaccharide (LPS, 10 μg/mL) to induce COX-2; endogenous in cells; host or cells: J774 murine monocyte/macrophage cell line, LPS-stimulated
Sequence (Q05769 18-604): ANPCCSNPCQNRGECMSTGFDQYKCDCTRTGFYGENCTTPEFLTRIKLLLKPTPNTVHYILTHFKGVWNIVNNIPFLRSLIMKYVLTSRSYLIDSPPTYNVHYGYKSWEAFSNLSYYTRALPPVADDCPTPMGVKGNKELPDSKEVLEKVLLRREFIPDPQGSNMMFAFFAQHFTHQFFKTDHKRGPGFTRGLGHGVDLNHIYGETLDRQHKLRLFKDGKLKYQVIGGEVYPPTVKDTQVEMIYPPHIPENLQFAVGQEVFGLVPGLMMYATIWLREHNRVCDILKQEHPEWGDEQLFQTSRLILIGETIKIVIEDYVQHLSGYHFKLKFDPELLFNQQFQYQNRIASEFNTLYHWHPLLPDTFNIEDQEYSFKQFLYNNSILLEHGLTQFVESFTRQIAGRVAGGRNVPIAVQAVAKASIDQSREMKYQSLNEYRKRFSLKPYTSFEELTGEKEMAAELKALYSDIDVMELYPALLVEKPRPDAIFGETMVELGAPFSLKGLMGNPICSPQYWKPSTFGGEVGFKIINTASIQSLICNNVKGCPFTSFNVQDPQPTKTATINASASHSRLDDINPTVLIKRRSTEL
Test: Assessment of COX-2 activity in LPS-stimulated J774 cells (PGE2 radioimmunoassay)
Assay type: cell-based, murine
Conditions: Table 9, Formula I-d; read-out: COX-2 IC50
Measured pIC50 of individual entries
The read-out pIC50 is expressed as -log10 of concentration in moles per litre.

- COCCc1cc(-c2ccc(S(C)(=O)=O)cc2)n(-c2ccc(F)cc2)c1C: 7.74

Could you now consider this next compound?
Query: Request - read-out pIC50 | tested on COX-2 (Mus musculus, UniProt Q05769) | compound `COCCc1cc(-c2ccc(S(C)(=O)=O)cc2)n(-c2ccc(C(F)(F)F)cc2)c1C`
Response: 7.31
